Target: Neu5Ac(a2-6)Gal(b1-4)GlcNAc(b1-2)Man(a1-6)[Gal(b1-4)GlcNAc(b1-2)Man(a1-3)]Man(b1-4)GlcNAc(b1-4)GlcNAc
Test: glycan array binding signal (z-score within array); higher = stronger binding
Settings: glycan notation: IUPAC condensed, linker removed
Many of the other results were omitted from the sample, so the strongest signals are more common in it than they were.
glycan array binding signal (z-score) values, listed per item

Worked cases, answers included:
>>> result("Epa1 (Candida glabrata) (protein) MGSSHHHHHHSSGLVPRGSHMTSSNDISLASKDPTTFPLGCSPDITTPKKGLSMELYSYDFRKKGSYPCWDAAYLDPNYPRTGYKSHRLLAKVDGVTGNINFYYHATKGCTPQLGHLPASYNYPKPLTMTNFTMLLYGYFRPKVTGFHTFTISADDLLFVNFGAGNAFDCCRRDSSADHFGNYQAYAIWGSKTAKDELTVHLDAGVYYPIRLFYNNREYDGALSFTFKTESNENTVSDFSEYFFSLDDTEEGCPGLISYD")
-0.14
>>> result("FimA-N2 (Actinomyces oris) (protein) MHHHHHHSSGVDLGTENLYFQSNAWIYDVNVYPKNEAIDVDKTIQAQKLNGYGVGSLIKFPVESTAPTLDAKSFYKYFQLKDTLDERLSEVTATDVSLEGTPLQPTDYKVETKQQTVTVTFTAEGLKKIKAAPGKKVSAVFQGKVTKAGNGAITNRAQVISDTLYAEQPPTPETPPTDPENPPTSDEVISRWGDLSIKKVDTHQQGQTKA")
-1.01

Next up:
IN: Field request: glycan array binding signal (z-score) | item: Tp0751, 83732 (protein) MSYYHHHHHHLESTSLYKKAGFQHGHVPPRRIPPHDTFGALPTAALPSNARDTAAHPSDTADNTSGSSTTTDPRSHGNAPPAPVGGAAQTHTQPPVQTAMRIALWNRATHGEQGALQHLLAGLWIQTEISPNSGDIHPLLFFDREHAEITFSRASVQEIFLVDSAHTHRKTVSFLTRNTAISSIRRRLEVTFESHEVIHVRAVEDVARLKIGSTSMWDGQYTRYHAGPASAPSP
OUT: -0.478
